B1: F1*; the commonest letter at each place (parent)
chain: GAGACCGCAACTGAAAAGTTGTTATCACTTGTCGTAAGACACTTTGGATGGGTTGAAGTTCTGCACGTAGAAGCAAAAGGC

Variants of: B1
Assay Details: fraction ligated after 30 min (ligated reads / total reads); higher = more ligase activity
Assay Setup: with F1*sub RNA substrate (template-directed ligation), 42 °C
Given measured fraction ligated, output Yes if it is greater than or equal to 0.8 and No if not.

Sample answers from the record:
GAGACCGCAACTGAAAAGTTGTTATCACTTGACGTAAGAGACTTTGGATGGGTTGAAGTTCTGCACGTAGAAGCAAAAGGC    Yes
GAGACCGCAACTGAAAAGTTGTTAGCACTTGTCGTAAGACACTTGGGATGGGTTGAAGTTCTGCACGTAGAAGCAAAAGGC    No
GAGACCGCAACTGAAAAGTTGTTATCACTTGTAGTAAGACACTTTGGTTGGGTTGAAGTTCTGCACGTAGAAGCAAAAGGC    No
GAGACCGCAACTGAAAAGTTGTTGTCACTTGTCGTAAGACTCTTTGGATGGGTTGAAGTTCTGCACGTAGAAGCAAAAGGC    No
GAGACCGCAACTGAAAAGTTGTTATGACTTGTCGTCAGACACTTTGGATGGGTTGAAGTTCTGCACGTAGAAGCAAAAGGC    No
GAGACCGCAACTGAAAAGTTGTTATCACTTGTGGTAAGACACTTTGGATGGGTTAAAGTTCTGCACGTAGAAGCAAAAGGC    Yes
GAGACCGCAACTGAAAAGTTGTTGTCACTTGTCGTAAGACACGTTGGATGGGTTGAAGTTCTGCACGTAGAAGCAAAAGGC    No
GAGACCGCAACTGAAAAGTTGTTGCCACTTGTCGTAAGACACTTTGGATGGGTTGAAGTTCTGCACGTAGAAGCAAAAGGC    No
GAGACCGCAACTGAAAAGTTGTTATCACTGGGCGTAAGCCCCTTTGGATGGGTTGAAGTTCTGCACGTAGAAGCAAAAGGC    Yes
GAGACCGCAACTGAAAAGTTGTTATCACTTGTCGTAAGACATTCTGGATGGGTTGAAGTTCTGCACGTAGAAGCAAAAGGC    Yes

Now for a further variant.
For this variant, is measured fraction ligated 0.8 or higher? `GAGACCGCAACTGAAAAGTTGTTATCACTTGTCTTAAGACACTTTGGCTGGGTTGAAGTTCTGCACGTAGAAGCAAAAGGC`
No
